experiment: chemical genetic growth profiling, strain panel (AID 1159580);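 note: tested at 20 µM; growth read once vehicle control cultures reached saturation at 30 °C; 1 = growth at the plate median or of vehicle wells; lower values mean less growth of the strain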; conditions: S. cerevisiae deletion strains, growth OD, locus YIL073C, strain SPO22, active compounds read low
Screen size: about 5,500 compounds; about 2,000 (36%) were called active. About 18% were inconclusive and are not listed. The list shows a part of the results.

Compound	normalized growth
CCOC(=O)CCC(=O)O[C@H]1[C@H](O[C@@H]2[C@@H](C)[C@H](O[C@H]3C[C@@](C)(OC)[C@@H](O)[C@H](C)O3)[C@@H](C)C(=O)O[C@H](CC)[C@@](C)(O)[C@H](O)[C@@H](C)C(=O)[C@H](C)C[C@@]2(C)O)O[C@H](C)C[C@@H]1N(C)C	1
CC(=O)OCC[N+](C)(C)C	0.973
COc1ccc2c(c1OC)C(=O)O[C@H]2[C@H]1c2cc3c(cc2CCN1C)OCO3	0.997
CC1CC2C3CCC4=CC(=O)C=C[C@]4(C)[C@@]3(F)[C@@H](O)C[C@]2(C)[C@@]1(O)C(=O)CO (stereo not given in full)	0.972
CCN(CC)CCCC(C)Nc1ccnc2cc(Cl)ccc12 (stereo not given)	1.01
